System: barnyardgrass (Echinochloa crus-galli, ECHCG)
ASSAY SUMMARY: Post-emerge test, greenhouse herbicide activity screening
Format: in vivo
MEASUREMENT CONTEXT: post-emerge, 250 g ai/ha, 14 days after application, rating scale 0-100
MEASURE NAME: phytotoxicity rating ECHCG
Lab note: record the figure alone, no unit after it.

INSERT INTO results (compound_string, test_result) VALUES
  ('Cc1c(Cl)cc(F)c(-n2c(=O)cc(C(F)(F)F)n(C)c2=O)c1NC(=O)OCCc1ccccc1', 40);

Request: Supply reported phytotoxicity rating ECHCG belonging to this compound: COc1c(Cl)cc(F)c(-n2c(=O)cc(C(F)(F)F)n(C)c2=O)c1NC(=O)c1ccc(F)cc1F
Result: 80

Request: Supply reported phytotoxicity rating ECHCG belonging to this compound: Cc1c(Cl)cc(F)c(-n2c(=O)cc(C(F)(F)F)n(C)c2=O)c1NC(=O)OCc1ccccc1Cl
Result: 80

Request: Supply reported phytotoxicity rating ECHCG belonging to this compound: Cn1c(C(F)(F)F)cc(=O)n(-c2ccc(C(N)=S)cc2NC(=O)c2ccc3ccccc3c2)c1=O
Result: 0

###

System: upland rice (Oryza sp., var. Tebonnet, RICE)
ASSAY SUMMARY: Post-emerge test, crop safety
Type: in vivo
MEASUREMENT CONTEXT: Rate 250 g ai/ha; rating scale 0-100 (0 no damage, 100 complete death); 14 days after application
Measured Post-emerge phytotoxicity rating RICE (crop damage), listed per entry.
Lab note: record the figure alone, no unit after it.

Here are 8 molecules together with their reported answers.
INSERT INTO results (molecule, test_result) VALUES
  ('COc1c(Cl)cc(F)c(-n2c(=O)cc(C(F)(F)F)n(C)c2=O)c1CC(Cl)C(=O)OCCOc1ccccc1 (single isomer, unassigned) [14-28]', 40),
  ('CCCCCCOC(=O)C(Cl)Cc1c(OC)c(Cl)cc(F)c1-n1c(=O)cc(C(F)(F)F)n(C)c1=O (single isomer, unassigned)', 10),
  ('CCCOC(=O)C(Cl)Cc1c(OC)c(Cl)cc(F)c1-n1c(=O)cc(C(F)(F)F)n(C)c1=O (single isomer, unassigned) [14-7]', 25),
  ('COc1c(Cl)cc(F)c(-n2c(=O)cc(C(F)(F)F)n(C)c2=O)c1CC(Cl)C(=O)OCCC(C)C (single isomer, unassigned)', 10),
  ('COCCOC(=O)C(C)(Cl)Cc1c(OC)c(Cl)cc(F)c1-n1c(=O)cc(C(F)(F)F)n(C)c1=O (stereo not drawn)', 100),
  ('C#CCOC(=O)C(Cl)Cc1c(OC)c(Cl)cc(F)c1-n1c(=O)cc(C(F)(F)F)n(C)c1=O (single isomer, unassigned) [14-19]', 20),
  ('CCCCOC(=O)C(Cl)Cc1c(OC)c(Cl)cc(F)c1-n1c(=O)cc(C(F)(F)F)n(C)c1=O (single isomer, unassigned) [14-8]', 30),
  ('CCCOC(=O)C(C)(Cl)Cc1c(OC)c(Cl)cc(F)c1-n1c(=O)cc(C(F)(F)F)n(C)c1=O (stereo not drawn)', 100);

Request: Supply reported Post-emerge phytotoxicity rating RICE (crop damage) belonging to this molecule: CCCCOC(=O)C(Cl)Cc1c(OC)c(Cl)cc(F)c1-n1c(=O)cc(C(F)(F)F)n(C)c1=O (single isomer, unassigned) [14-9]
Result: 20

Request: Supply reported Post-emerge phytotoxicity rating RICE (crop damage) belonging to this molecule: COCCOC(=O)C(Cl)Cc1c(OC)c(Cl)cc(F)c1-n1c(=O)cc(C(F)(F)F)n(C)c1=O (stereo not drawn)
Result: 50

Request: Supply reported Post-emerge phytotoxicity rating RICE (crop damage) belonging to this molecule: CCCCCOC(=O)C(Cl)Cc1c(OC)c(Cl)cc(F)c1-n1c(=O)cc(C(F)(F)F)n(C)c1=O (single isomer, unassigned) [14-10]
Result: 20

Request: Supply reported Post-emerge phytotoxicity rating RICE (crop damage) belonging to this molecule: COc1c(Cl)cc(F)c(-n2c(=O)cc(C(F)(F)F)n(C)c2=O)c1CC(Cl)C(=O)OCC(F)(F)F (stereo not drawn)
Result: 45
